Assay: Inhibitory activity against viral attachment
pIC50: −log10 of the molar value.
Documented pIC50 across a set of molecules

{"smiles-string": "O=C(NNC(=O)c1ccccc1S)c1ccccc1S", "pIC50": "< 4.00"}

Query block: Name the recorded pIC50 of the item `O=C(NNC(=O)c1ccccc1SSc1ccccc1C(=O)NNC(=O)c1ccccc1S)c1ccccc1S` in your answer.
Result block: < 4.00
